Every entry's value here was drawn from patent US20220298217A1.

target or test system: T1, Flag-PTHR1-YFP (parathyroid hormone receptor 1) expressed in transfected HEK293T cells (human, UniProt Q03431 27-593)
T1 sequence (looked up): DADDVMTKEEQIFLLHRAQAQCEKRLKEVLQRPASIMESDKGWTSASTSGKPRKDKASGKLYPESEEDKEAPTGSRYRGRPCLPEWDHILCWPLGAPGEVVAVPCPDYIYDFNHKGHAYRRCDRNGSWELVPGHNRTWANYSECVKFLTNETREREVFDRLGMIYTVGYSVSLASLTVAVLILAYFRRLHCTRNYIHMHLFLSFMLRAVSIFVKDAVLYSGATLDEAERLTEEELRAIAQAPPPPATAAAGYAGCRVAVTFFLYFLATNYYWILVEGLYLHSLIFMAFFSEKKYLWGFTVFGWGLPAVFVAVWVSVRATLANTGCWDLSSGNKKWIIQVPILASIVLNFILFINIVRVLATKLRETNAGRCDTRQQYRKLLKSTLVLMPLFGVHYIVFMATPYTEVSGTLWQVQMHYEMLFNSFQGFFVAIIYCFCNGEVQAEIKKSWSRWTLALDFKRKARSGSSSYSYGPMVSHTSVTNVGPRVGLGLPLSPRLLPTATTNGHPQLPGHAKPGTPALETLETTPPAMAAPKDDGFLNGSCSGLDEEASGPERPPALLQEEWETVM
measurement notes: cell-based or functional assay
Measured arrestin 1, plate 9: -log10EC50 of individual entries
quantity name: arrestin 1, plate 9: -log10EC50

| binder | value reported |
| --- | --- |
| AVAEIQLMHQRAKWEIQEIGIKITLELLKEYI [R2-37] | -5.08 -log10EC50 |
| AVAEIQLMHQRAKWLNELRLKEEMRKILEDVY [R2-33] | -8.23 -log10EC50 |
| AVAEIQLMHQRAKWGVELQLKVDLRRILEDVY [R2-35] | -3.53 -log10EC50 |
